Molecular target: FLK-1 receptor (Mus musculus)
Construct: expressed in transfected cells; host or cells: NIH3T3 C7#3 cells
Sequence (P35918 20-1345): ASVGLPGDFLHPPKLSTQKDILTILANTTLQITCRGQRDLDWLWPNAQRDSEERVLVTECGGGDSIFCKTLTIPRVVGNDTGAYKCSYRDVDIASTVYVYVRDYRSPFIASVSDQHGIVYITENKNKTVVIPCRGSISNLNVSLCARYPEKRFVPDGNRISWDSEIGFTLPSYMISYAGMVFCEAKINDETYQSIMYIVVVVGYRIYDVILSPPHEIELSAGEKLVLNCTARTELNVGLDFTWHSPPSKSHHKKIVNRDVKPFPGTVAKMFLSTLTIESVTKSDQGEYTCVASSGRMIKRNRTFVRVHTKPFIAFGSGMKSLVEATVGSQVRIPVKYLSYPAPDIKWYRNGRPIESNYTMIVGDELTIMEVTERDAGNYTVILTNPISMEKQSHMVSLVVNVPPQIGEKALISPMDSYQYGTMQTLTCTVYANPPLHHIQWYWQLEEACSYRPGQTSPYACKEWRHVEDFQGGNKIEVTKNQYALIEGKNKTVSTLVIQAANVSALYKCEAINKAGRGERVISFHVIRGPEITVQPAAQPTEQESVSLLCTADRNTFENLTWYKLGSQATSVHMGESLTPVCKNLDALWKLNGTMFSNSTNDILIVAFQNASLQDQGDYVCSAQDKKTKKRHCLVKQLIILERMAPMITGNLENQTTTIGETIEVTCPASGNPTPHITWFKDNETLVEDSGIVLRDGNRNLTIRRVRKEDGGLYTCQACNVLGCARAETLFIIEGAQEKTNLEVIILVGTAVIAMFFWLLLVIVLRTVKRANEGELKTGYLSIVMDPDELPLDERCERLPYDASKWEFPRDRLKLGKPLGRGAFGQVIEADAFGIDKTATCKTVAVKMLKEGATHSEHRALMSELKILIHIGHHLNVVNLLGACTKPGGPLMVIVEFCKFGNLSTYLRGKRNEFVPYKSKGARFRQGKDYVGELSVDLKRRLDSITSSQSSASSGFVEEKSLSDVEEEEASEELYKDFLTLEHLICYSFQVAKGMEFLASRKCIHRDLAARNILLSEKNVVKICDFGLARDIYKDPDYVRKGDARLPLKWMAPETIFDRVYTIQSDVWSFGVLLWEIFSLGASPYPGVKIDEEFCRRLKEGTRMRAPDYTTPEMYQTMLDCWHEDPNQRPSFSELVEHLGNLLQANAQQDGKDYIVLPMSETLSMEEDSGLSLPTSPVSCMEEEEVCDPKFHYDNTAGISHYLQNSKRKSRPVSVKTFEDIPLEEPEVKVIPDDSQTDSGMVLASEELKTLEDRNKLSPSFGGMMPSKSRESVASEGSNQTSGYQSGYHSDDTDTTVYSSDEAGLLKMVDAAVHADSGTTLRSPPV
Experiment: ELISA assay measuring the kinase activity of the FLK-1 receptor in cells engineered to express FLK-1
Type: cell-based
Conditions: FLK-1 expressing NIH3T3 C7#3 cells, VEGF stimulated; compound at 100 μM
EXPERIMENTAL_ENDPOINT: inhibition at 100 µM (%)
Numbers only, in %.

Some solved cases for reference:
{"COMPOUND": "O=C1Nc2ccccc2/C1=C/c1cc2ccccc2[nH]1", "REPORTED_VALUE": 17.6}
{"COMPOUND": "O=C1Nc2cc(Cl)ccc2/C1=C/c1cc2ccccc2[nH]1", "REPORTED_VALUE": 6.1}
{"COMPOUND": "Cc1cccc2c1C(=Cc1cc3ccccc3[nH]1)C(=O)N2", "REPORTED_VALUE": 26}
{"COMPOUND": "Cc1c(/C=C2\\C(=O)Nc3ccc(Cl)cc32)[nH]c2ccccc12", "REPORTED_VALUE": 20.4}
{"COMPOUND": "Cc1c(/C=C2\\C(=O)Nc3ccc(S(N)(=O)=O)cc32)[nH]c2ccccc12", "REPORTED_VALUE": 8.7}
{"COMPOUND": "Cc1c(C=C2C(=O)Nc3ccc(S(=O)(=O)N(C)C)cc32)[nH]c2ccccc12 (mixture of isomers)", "REPORTED_VALUE": 7}
{"COMPOUND": "O=C1Nc2ccc(Cl)cc2/C1=C/c1cc2ccccc2[nH]1", "REPORTED_VALUE": 17}
{"COMPOUND": "Cc1c(/C=C2\\C(=O)Nc3ccc(Br)cc32)[nH]c2ccccc12", "REPORTED_VALUE": 15.8}

Now for the compound whose inhibition at 100 µM we want.
**Query** Requested read-out: inhibition at 100 µM. Entry: Cc1ccc2c(c1)/C(=C/c1[nH]c3ccccc3c1C)C(=O)N2
**Result** 10.7
